- Experimental system: T1, PTK6 SH2 domain (human, UniProt Q13882 78-170)
- T1 construct: PTK6, human; SH2 domain; source: bacterial expression culture, purified
- T1 sequence (Q13882 78-170): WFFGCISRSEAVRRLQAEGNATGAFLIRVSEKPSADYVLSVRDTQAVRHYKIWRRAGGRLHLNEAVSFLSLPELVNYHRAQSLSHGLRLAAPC
- Assay name: fluorescence polarisation; saturation binding in solution; rhodamine-labeled peptide fixed at 10 nM, protein titrated 0.002-10 µM (twelve two-fold dilutions); 20 minutes at room temperature in the dark; assay buffer 20 mM HEPES, 100 mM KCl, 0.1% Tween-20, 5 mM DTT, pH 7.8; apparent KD; assay detection threshold of 20 µM
- Test settings: both partners purified
pKd: −log10 of the molar value. Non-standard residues stand in square brackets, D forms with d. No end group written: not given here. pY = N[C@@H](Cc1ccc(OP(=O)(O)O)cc1)C(=O)O; Rhodamine = not defined here
Parameter: pKd

-- ask May I ask what pKd has been recorded for Rhodamine-FGTV[pY]KGIWIPD (reading uncertain) [ErbB2-pY735 phosphopeptide, rhodamine-labelled] ?
-- reply ≤ 4.70
